Cited source: patent US20230257351A1

target-system: human P2X4 (Homo sapiens)
Sequence (Q99571 1-388): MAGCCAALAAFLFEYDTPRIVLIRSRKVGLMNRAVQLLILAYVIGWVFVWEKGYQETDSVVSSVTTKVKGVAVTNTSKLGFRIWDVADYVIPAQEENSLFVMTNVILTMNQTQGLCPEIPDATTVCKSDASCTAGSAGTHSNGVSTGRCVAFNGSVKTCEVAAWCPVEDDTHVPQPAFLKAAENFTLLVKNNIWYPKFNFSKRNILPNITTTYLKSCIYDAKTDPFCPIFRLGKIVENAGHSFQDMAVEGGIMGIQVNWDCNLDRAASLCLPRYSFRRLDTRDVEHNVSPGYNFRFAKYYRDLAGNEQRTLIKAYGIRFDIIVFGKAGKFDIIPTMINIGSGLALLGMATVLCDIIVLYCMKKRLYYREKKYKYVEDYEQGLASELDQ
test-details: Human P2X4 HEK Cell FLIPR Assay
applied-conditions: HEK293 stably expressing human P2X4; agonist Bz-ATP 3 μM (EC80); read-out: Human P2X4 HEK Cells (FLIPR Assay) avg IC50
parameter: pIC50
Schema: pIC50 number; meaning minus log10 of the concentration expressed in molar units.

[Q] Which pIC50 reading was recorded for the molecule CC(=O)N(c1ccccc1)c1cc(NC(=O)Cc2c(F)cccc2Cl)ccn1 ?
[A] 6.11

[Q] Which pIC50 reading was recorded for the molecule CC(=O)N(c1cccc(F)c1)c1cc(NC(=O)Cc2ccccc2Cl)ccn1 ?
[A] 6.57

[Q] Which pIC50 reading was recorded for the molecule CC(=O)N(c1ccc(S(C)(=O)=O)c(Cl)c1)c1cc(NC(=O)Cc2c(Cl)cccc2Cl)ccn1 ?
[A] 6.47

[Q] Which pIC50 reading was recorded for the molecule CC(=O)N(c1cccc(C(F)(F)F)c1)c1cc(NC(=O)Cc2ccc(F)cc2Cl)ccn1 ?
[A] 6.07

[Q] Which pIC50 reading was recorded for the molecule CC(=O)N(c1cccc(F)c1)c1cc(NC(=O)Cc2ccccc2Cl)cnn1 ?
[A] 6.26

[Q] Which pIC50 reading was recorded for the molecule CC(=O)N(c1cc(NC(=O)Cc2ccc(F)cc2Cl)ccn1)c1cccc(F)c1F ?
[A] 6.36

[Q] Which pIC50 reading was recorded for the molecule CC(=O)N(c1ccc(F)cc1)c1cc(NC(=O)Cc2ccc(F)cc2Cl)ccn1 ?
[A] 6.05

[Q] Which pIC50 reading was recorded for the molecule CC(=O)N(c1ccc(F)cc1)c1cc(NC(=O)Cc2cccc(F)c2Cl)cnn1 ?
[A] 6.13

[Q] Which pIC50 reading was recorded for the molecule CC(=O)N(c1ccc(F)c(C#N)c1)c1cc(NC(=O)Cc2cccc(C(F)(F)F)c2Cl)ccn1 ?
[A] 6.13

[Q] Which pIC50 reading was recorded for the molecule CC(=O)N(c1ccc(F)cc1)c1cc(NC(=O)Cc2c(Cl)cccc2Cl)ccn1 ?
[A] 6.63

[Q] Which pIC50 reading was recorded for the molecule CC(=O)N(c1ccc(Cl)c(F)c1)c1cc(NC(=O)Cc2ccc(F)cc2Cl)ccn1 ?
[A] 6.27

[Q] Which pIC50 reading was recorded for the molecule CC(=O)N(c1ccc(F)c(F)c1)c1cc(NC(=O)Cc2cccc(C)c2C)ccn1 ?
[A] 6.60

[Q] Which pIC50 reading was recorded for the molecule CC(=O)N(c1cc(NC(=O)Cc2cccc(F)c2Cl)ccn1)c1cc(F)ccc1Cl ?
[A] 6.54

[Q] Which pIC50 reading was recorded for the molecule CC(=O)N(c1cc(F)cc(F)c1)c1cc(NC(=O)Cc2ccccc2OC(F)(F)F)ccn1 ?
[A] 6.46

[Q] Which pIC50 reading was recorded for the molecule CC(=O)N(c1ccc(S(C)(=O)=O)c(F)c1)c1cc(NC(=O)Cc2c(Cl)cccc2Cl)ccn1 ?
[A] 6.30

[Q] Which pIC50 reading was recorded for the molecule COc1c(F)cc(N(C(C)=O)c2cc(NC(=O)Cc3ccc(F)cc3Cl)ccn2)cc1F ?
[A] 6.34

[Q] Which pIC50 reading was recorded for the molecule COc1cc(N(C(C)=O)c2cc(NC(=O)Cc3cccc(F)c3Cl)ccn2)ccc1F ?
[A] 6.12

* * *

target-system: human P2X4 (Homo sapiens, UniProt Q99571)
Construct: expressed in transfected cells
test-details: Human P2X4 HEK Cell FLIPR Assay
Type: cell-based
applied-conditions: HEK293 stably expressing human P2X4; agonist Bz-ATP 3 μM (EC80)
Hi there, I'd appreciate the recorded Human P2X4 HEK Cells (FLIPR Assay) avg Efficacy for every entry that follows.
Only the number, expressed in %, is required.

[Q] Which Human P2X4 HEK Cells (FLIPR Assay) avg Efficacy reading was recorded for the compound CC(=O)N(c1cc(NC(=O)Cc2ccccc2Cl)ccn1)c1ccc(F)cc1F ?
[A] 96

[Q] Which Human P2X4 HEK Cells (FLIPR Assay) avg Efficacy reading was recorded for the compound CC(=O)N(c1cccc(C(F)(F)F)c1)c1cc(NC(=O)Cc2c(Cl)cccc2Cl)ccn1 ?
[A] 99

[Q] Which Human P2X4 HEK Cells (FLIPR Assay) avg Efficacy reading was recorded for the compound CC(=O)N(c1cc(NC(=O)Cc2c(Cl)cccc2Cl)ccn1)c1ccccc1C(F)F ?
[A] 99

[Q] Which Human P2X4 HEK Cells (FLIPR Assay) avg Efficacy reading was recorded for the compound CC(=O)N(c1ccc(F)cc1)c1cc(NC(=O)Cc2c(Cl)cccc2C#N)ccn1 ?
[A] 93

[Q] Which Human P2X4 HEK Cells (FLIPR Assay) avg Efficacy reading was recorded for the compound CC(=O)N(c1cc(F)cc(F)c1)c1cc(NC(=O)Cc2ccc(F)cc2Cl)ccn1 ?
[A] 98

[Q] Which Human P2X4 HEK Cells (FLIPR Assay) avg Efficacy reading was recorded for the compound CC(=O)N(c1ccc(F)c(F)c1)c1cc(NC(=O)Cc2ccccc2OC(F)(F)F)ccn1 ?
[A] 97

[Q] Which Human P2X4 HEK Cells (FLIPR Assay) avg Efficacy reading was recorded for the compound CC(=O)N(c1cc(F)cc(Cl)c1)c1cc(NC(=O)Cc2c(F)cccc2Cl)ccn1 ?
[A] 105

[Q] Which Human P2X4 HEK Cells (FLIPR Assay) avg Efficacy reading was recorded for the compound CC(=O)N(c1cccc(C(F)(F)F)c1)c1cc(NC(=O)Cc2ccc(F)cc2Cl)ccn1 ?
[A] 97

[Q] Which Human P2X4 HEK Cells (FLIPR Assay) avg Efficacy reading was recorded for the compound CC(=O)N(c1cc(F)cc(C#N)c1)c1cc(NC(=O)Cc2ccc(F)cc2Cl)ccn1 ?
[A] 100

[Q] Which Human P2X4 HEK Cells (FLIPR Assay) avg Efficacy reading was recorded for the compound COc1ccc(N(C(C)=O)c2cc(NC(=O)Cc3cccc(F)c3Cl)ccn2)cc1F ?
[A] 97

[Q] Which Human P2X4 HEK Cells (FLIPR Assay) avg Efficacy reading was recorded for the compound CC(=O)N(c1cc(NC(=O)Cc2cccc(F)c2Cl)ccn1)c1ccccc1C(F)F ?
[A] 100

[Q] Which Human P2X4 HEK Cells (FLIPR Assay) avg Efficacy reading was recorded for the compound CC(=O)N(c1ccc(F)cc1)c1cc(NC(=O)Cc2ccccc2Cl)ccn1 ?
[A] 91

[Q] Which Human P2X4 HEK Cells (FLIPR Assay) avg Efficacy reading was recorded for the compound COc1cc(F)cc(N(C(C)=O)c2cc(NC(=O)Cc3c(Cl)cccc3Cl)ccn2)c1 ?
[A] 104

[Q] Which Human P2X4 HEK Cells (FLIPR Assay) avg Efficacy reading was recorded for the compound CC(=O)N(c1ccc(F)c(F)c1)c1cc(NC(=O)Cc2c(Cl)cc(C)cc2Cl)ccn1 ?
[A] 89

[Q] Which Human P2X4 HEK Cells (FLIPR Assay) avg Efficacy reading was recorded for the compound CC(=O)N(c1cccc(F)c1)c1cc(NC(=O)Cc2ccc(F)cc2Cl)ccn1 ?
[A] 102

[Q] Which Human P2X4 HEK Cells (FLIPR Assay) avg Efficacy reading was recorded for the compound CC(=O)N(c1ccc(C#N)c(C(F)(F)F)c1)c1cc(NC(=O)Cc2ccccc2Cl)ccn1 ?
[A] 94

[Q] Which Human P2X4 HEK Cells (FLIPR Assay) avg Efficacy reading was recorded for the compound CC(=O)N(c1cc(NC(=O)Cc2c(F)cccc2Cl)ccn1)c1ccccc1C(F)F ?
[A] 99

* * *

target-system: rat P2X4 (Rattus norvegicus, UniProt P51577)
Construct: expressed in transfected cells
Sequence (P51577 whole entry): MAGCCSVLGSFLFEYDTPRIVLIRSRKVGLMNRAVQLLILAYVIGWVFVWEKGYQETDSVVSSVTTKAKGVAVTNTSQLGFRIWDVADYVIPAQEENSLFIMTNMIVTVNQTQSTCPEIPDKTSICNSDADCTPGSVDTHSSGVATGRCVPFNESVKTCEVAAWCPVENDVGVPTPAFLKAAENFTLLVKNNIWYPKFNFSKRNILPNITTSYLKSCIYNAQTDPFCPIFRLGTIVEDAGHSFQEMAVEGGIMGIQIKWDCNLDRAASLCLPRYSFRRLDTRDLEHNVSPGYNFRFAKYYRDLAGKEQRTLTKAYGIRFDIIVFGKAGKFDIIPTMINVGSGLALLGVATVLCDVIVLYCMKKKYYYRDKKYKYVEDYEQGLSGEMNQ
test-details: FLIPR Method for Rat P2X4 1321N1 Astrocytoma Cells
Type: cell-based
applied-conditions: 1321N1 stably expressing rat P2X4; agonist MgATP 5 μM (EC80)
Hi there, I'd appreciate the recorded Rat P2X4 1321N1 Astrocytoma Cells (FLIPR Assay) avg Efficacy for every entry that follows.
Only the number, expressed in %, is required.

[Q] Which Rat P2X4 1321N1 Astrocytoma Cells (FLIPR Assay) avg Efficacy reading was recorded for the compound CCCC(=O)N(c1ccc(F)cc1)c1cc(NC(=O)Cc2ccc(F)cc2Cl)ccn1 [Example 141] ?
[A] 100

[Q] Which Rat P2X4 1321N1 Astrocytoma Cells (FLIPR Assay) avg Efficacy reading was recorded for the compound CC(=O)N(c1ccc(F)c(C#N)c1)c1cc(NC(=O)Cc2ccccc2Cl)ccn1 [Example 21] ?
[A] 90

[Q] Which Rat P2X4 1321N1 Astrocytoma Cells (FLIPR Assay) avg Efficacy reading was recorded for the compound CC(=O)N(c1cc(NC(=O)Cc2c(F)cccc2Cl)ccn1)c1ccc(F)cc1F [Example 130] ?
[A] 80

[Q] Which Rat P2X4 1321N1 Astrocytoma Cells (FLIPR Assay) avg Efficacy reading was recorded for the compound CC(=O)N(c1ccc(F)c(F)c1)c1cc(NC(=O)Cc2c(C)cc(C)cc2Cl)ccn1 [Example 65] ?
[A] 93

[Q] Which Rat P2X4 1321N1 Astrocytoma Cells (FLIPR Assay) avg Efficacy reading was recorded for the compound CC(=O)N(c1cc(F)cc(F)c1)c1cc(NC(=O)Cc2cccc(C)c2C)ccn1 [Example 83] ?
[A] 90

[Q] Which Rat P2X4 1321N1 Astrocytoma Cells (FLIPR Assay) avg Efficacy reading was recorded for the compound COc1ccc(N(C(C)=O)c2cc(NC(=O)Cc3ccccc3Cl)ccn2)cc1F [Example 77] ?
[A] 84

[Q] Which Rat P2X4 1321N1 Astrocytoma Cells (FLIPR Assay) avg Efficacy reading was recorded for the compound CC(=O)N(c1cc(NC(=O)Cc2ccc(F)cc2Cl)ccn1)c1cc(F)ccc1Cl [Example 112] ?
[A] 97

[Q] Which Rat P2X4 1321N1 Astrocytoma Cells (FLIPR Assay) avg Efficacy reading was recorded for the compound CC(=O)N(c1ccc(F)c(C#N)c1)c1cc(NC(=O)Cc2cccc(F)c2Cl)ccn1 [Example 23] ?
[A] 96

[Q] Which Rat P2X4 1321N1 Astrocytoma Cells (FLIPR Assay) avg Efficacy reading was recorded for the compound CC(=O)N(c1ccc(F)c(F)c1)c1cc(NC(=O)Cc2c(C)cccc2C)ccn1 [Example 66] ?
[A] 73

[Q] Which Rat P2X4 1321N1 Astrocytoma Cells (FLIPR Assay) avg Efficacy reading was recorded for the compound CC(=O)N(c1ccc(F)cc1)c1cc(NC(=O)Cc2c(Cl)cc(F)cc2Cl)ccn1 [Example 39] ?
[A] 98

[Q] Which Rat P2X4 1321N1 Astrocytoma Cells (FLIPR Assay) avg Efficacy reading was recorded for the compound CC(=O)N(c1cc(F)cc(F)c1)c1cc(NC(=O)Cc2ccccc2Cl)ccn1 [Example 86] ?
[A] 98

[Q] Which Rat P2X4 1321N1 Astrocytoma Cells (FLIPR Assay) avg Efficacy reading was recorded for the compound CC(=O)N(c1ccc(Cl)c(F)c1)c1cc(NC(=O)Cc2cccc(F)c2Cl)ccn1 [Example 60] ?
[A] 94

[Q] Which Rat P2X4 1321N1 Astrocytoma Cells (FLIPR Assay) avg Efficacy reading was recorded for the compound CC(=O)N(c1cccc(Cl)c1)c1cc(NC(=O)Cc2cccc(F)c2Cl)ccn1 [Example 133] ?
[A] 100

[Q] Which Rat P2X4 1321N1 Astrocytoma Cells (FLIPR Assay) avg Efficacy reading was recorded for the compound CC(=O)N(c1ccc(F)c(F)c1)c1cc(NC(=O)Cc2ccc(Cl)cc2Cl)ccn1 [Example 67] ?
[A] 97

[Q] Which Rat P2X4 1321N1 Astrocytoma Cells (FLIPR Assay) avg Efficacy reading was recorded for the compound CC(=O)N(c1cccc(F)c1)c1cc(NC(=O)Cc2c(Cl)cc(F)cc2Cl)ccn1 [Example 57] ?
[A] 97

[Q] Which Rat P2X4 1321N1 Astrocytoma Cells (FLIPR Assay) avg Efficacy reading was recorded for the compound CC(=O)N(c1ccc(F)c(C#N)c1)c1cc(NC(=O)Cc2ccc(F)cc2Cl)ccn1 [Example 22] ?
[A] 95

[Q] Which Rat P2X4 1321N1 Astrocytoma Cells (FLIPR Assay) avg Efficacy reading was recorded for the compound CC(=O)N(c1ccc(F)cc1)c1cc(NC(=O)Cc2ccccc2C(F)(F)F)ccn1 [Example 30] ?
[A] 96

[Q] Which Rat P2X4 1321N1 Astrocytoma Cells (FLIPR Assay) avg Efficacy reading was recorded for the compound CC(=O)N(c1ccccc1)c1cc(NC(=O)Cc2c(Cl)cccc2Cl)ccn1 [Example 27] ?
[A] 99

[Q] Which Rat P2X4 1321N1 Astrocytoma Cells (FLIPR Assay) avg Efficacy reading was recorded for the compound CC(=O)N(c1ccc(F)c(Cl)c1)c1cc(NC(=O)Cc2ccccc2Cl)ccn1 [Example 50] ?
[A] 96

[Q] Which Rat P2X4 1321N1 Astrocytoma Cells (FLIPR Assay) avg Efficacy reading was recorded for the compound CCCC(=O)N(c1ccc(F)cc1)c1cc(NC(=O)Cc2ccccc2Cl)ccn1 [Example 143] ?
[A] 101

[Q] Which Rat P2X4 1321N1 Astrocytoma Cells (FLIPR Assay) avg Efficacy reading was recorded for the compound CC(=O)N(c1cc(NC(=O)Cc2c(Cl)cccc2Cl)ccn1)c1ccc(F)cc1F [Example 129] ?
[A] 96

[Q] Which Rat P2X4 1321N1 Astrocytoma Cells (FLIPR Assay) avg Efficacy reading was recorded for the compound CCCC(=O)N(c1ccc(F)cc1)c1cc(NC(=O)Cc2c(Cl)cccc2Cl)ccn1 [Example 144] ?
[A] 100

[Q] Which Rat P2X4 1321N1 Astrocytoma Cells (FLIPR Assay) avg Efficacy reading was recorded for the compound CC(=O)N(c1ccc(F)c(F)c1)c1cc(NC(=O)Cc2c(Cl)cc(C)cc2Cl)ccn1 [Example 74] ?
[A] 97
